Molecular target: Acetylcholinesterase (Homo sapiens) (UniProt P22303)
Sequence (P22303 whole entry): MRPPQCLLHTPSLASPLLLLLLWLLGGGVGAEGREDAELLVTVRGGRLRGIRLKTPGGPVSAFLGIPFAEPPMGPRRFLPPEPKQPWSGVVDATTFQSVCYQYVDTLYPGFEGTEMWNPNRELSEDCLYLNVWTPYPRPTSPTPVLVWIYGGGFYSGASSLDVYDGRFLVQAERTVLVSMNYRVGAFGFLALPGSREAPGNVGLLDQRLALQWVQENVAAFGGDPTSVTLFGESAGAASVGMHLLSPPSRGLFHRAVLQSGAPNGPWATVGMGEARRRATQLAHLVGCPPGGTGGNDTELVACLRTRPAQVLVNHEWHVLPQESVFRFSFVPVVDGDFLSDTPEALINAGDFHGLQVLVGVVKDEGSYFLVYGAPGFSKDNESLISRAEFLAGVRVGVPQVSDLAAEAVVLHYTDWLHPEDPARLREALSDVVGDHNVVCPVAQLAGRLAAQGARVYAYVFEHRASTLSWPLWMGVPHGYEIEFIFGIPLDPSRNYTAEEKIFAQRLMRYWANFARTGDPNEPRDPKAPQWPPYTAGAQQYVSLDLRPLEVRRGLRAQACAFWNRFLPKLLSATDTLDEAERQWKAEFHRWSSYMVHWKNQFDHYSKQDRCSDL
Assay: Inhibition of AChE (unknown origin) at 10 uM relative to control
endpoint: inhibition (%)
Value expressed in %; do not type the unit.

- CCn1c(CNC(=O)c2nc(Cl)cnc2N)[n+](CCO)c2cc(OCC(=O)N3CCN(C(C)=O)CC3)ccc21: 75

[in] inhibition lookup needed for CCn1c(CNC(=O)c2nc(Cl)cnc2N)[n+](CC)c2ccc(C(=O)N(C)CCN(C)C)cc21 , thanks.
[out] 44

[in] Consider the compound CCn1c(CNC(=O)c2nc(Cl)cnc2N)[n+](CC)c2cc(OCC(=O)NCCOCP(C)(C)=O)ccc21 and give its measured inhibition.
[out] 29

[in] Give its inhibition value. Item: CCn1c(CNC(=O)c2nc(Cl)cnc2N)[n+](CC)c2cc(C(=O)N3CCC(N(C)C)CC3)ccc21
[out] 11

[in] Quick check: inhibition of CC[n+]1c(CNC(=O)c2nc(Cl)cnc2N)n(CC2CCOCC2)c2ccc(OCC(=O)N(Cc3nc(C)ccc3O)C[C@H](C)O)cc21 ?
[out] 18

====

A collection of compounds and their measured IC50
Assay: Cytotoxicity against human 16HBE14o- cells by plasma damage based analysis
Type: toxicity, cell-based

• CCn1c(CNC(=O)c2nc(Cl)cnc2N)[n+](CC)c2ccc(C(=O)N(C)CCN(C)C)cc21 = > 800 µM

Here is the next item to consider.
[in] Look up IC50 for this compound: CCn1c(CNC(=O)c2nc(Cl)cnc2N)[n+](CC)c2ccc(OCC(=O)NCCOCP(C)(C)=O)cc21
[out] > 800 µM

====

Parameter hepatic extraction ratio at 6 h, 1 µM: see the listing below.
Experiment: Metabolic stability in rat hepatocytes assessed as liver blood flow at 1 uM incubated for 6 hrs by HPLC-MS/MS analysis
Assay type: ADME, cell-based, Hepatocyte
Conditions: read-out: QH
The response must contain the number and no unit.

- CCn1c(CNC(=O)c2nc(Cl)cnc2N)[n+](CC)c2ccc(OCC(=O)NCCOCP(C)(C)=O)cc21: 0.28

// next item, hepatic extraction ratio at 6 h, 1 µM requested
[in] I have this molecule here, CCn1c(CNC(=O)c2nc(Cl)cnc2N)[n+](CC)c2ccc(C(=O)N(C)CCN(C)C)cc21 , and I need its recorded hepatic extraction ratio at 6 h, 1 µM.
[out] 0.2

====

Assay: Permeability across basal to apical side in human Calu-3 cells at 0.1 to 300 uM measured upto 2 hrs by HPLC-MS/MS analysis
Format: ADME, cell-based
Conditions: dose 0.1-300 µM, read-out: permeability
endpoint: Papp B→A at 2 h, up to 300 µM (×10⁻⁶ cm/s)
Expressed in ×10⁻⁶ cm/s, but write only the number.

- CCOP(=O)([O-])CCCOc1ccc2c(c1)[n+](CC)c(CNC(=O)c1nc(Cl)c(N)nc1N)n2CC1CCOCC1: 0.17
- CCn1c(CNC(=O)c2nc(Cl)c(N)nc2N)[n+](CC)c2cc(OCCCP(=O)([O-])OCCOC)ccc21: 0.03

Then there is this compound:
[in] What does the data say about its Papp B→A at 2 h, up to 300 µM? Entry: CC[n+]1c(CNC(=O)c2nc(Cl)cnc2N)n(CC2CCOCC2)c2ccc(OCC(=O)N(Cc3nc(C)ccc3O)C[C@H](C)O)cc21
[out] 0.12

====

System: M1 cell
Test: Inhibition of ENaC-mediated water resorption in mouse M1 cells at 3 uM by radiometric dilution assay relative to control
Assay type: cell-based
endpoint: inhibition (%)
Your answer is read as %, so omit the unit and give the number.

- CCn1c(CNC(=O)c2nc(Cl)cnc2N)[n+](CC)c2cc(OCC(=O)NCCOCP(C)(C)=O)ccc21: 72

[in] // inhibition lookup, key: CCn1c(CNC(=O)c2nc(Cl)c(N)nc2N)[n+](CC)c2cc(OCCCP(=O)([O-])OC[C@H]3CCCO3)ccc21
[out] 89

[in] For the compound shown here, CC[n+]1c(CNC(=O)c2nc(Cl)c(N)nc2N)n(CC2CCOCC2)c2ccc(OCC(=O)N(Cc3nc(C)ccc3O)C[C@H](C)O)cc21 , give the reported inhibition.
[out] 63

[in] Look up inhibition: CC[n+]1c(CNC(=O)c2nc(Cl)cnc2N)n(CC2CCOCC2)c2ccc(OCC(=O)N(Cc3nc(C)ccc3O)C[C@H](C)O)cc21
[out] 72

====

This section lists pIC50 readings for Cytochrome P450 2D6 (Homo sapiens).
pIC50: −log10 of the molar value.

• CCn1c(CNC(=O)c2nc(Cl)cnc2N)[n+](CC)c2ccc(C(=O)N(C)CCN(C)C)cc21 = < 4.30

# ---- query molecule ----
[in] State its pIC50 on Cytochrome P450 2D6 (Homo sapiens): CCn1c(CNC(=O)c2nc(Cl)cnc2N)[n+](CC)c2ccc(OCC(=O)NCCOCP(C)(C)=O)cc21
Sequence (P10635 whole entry): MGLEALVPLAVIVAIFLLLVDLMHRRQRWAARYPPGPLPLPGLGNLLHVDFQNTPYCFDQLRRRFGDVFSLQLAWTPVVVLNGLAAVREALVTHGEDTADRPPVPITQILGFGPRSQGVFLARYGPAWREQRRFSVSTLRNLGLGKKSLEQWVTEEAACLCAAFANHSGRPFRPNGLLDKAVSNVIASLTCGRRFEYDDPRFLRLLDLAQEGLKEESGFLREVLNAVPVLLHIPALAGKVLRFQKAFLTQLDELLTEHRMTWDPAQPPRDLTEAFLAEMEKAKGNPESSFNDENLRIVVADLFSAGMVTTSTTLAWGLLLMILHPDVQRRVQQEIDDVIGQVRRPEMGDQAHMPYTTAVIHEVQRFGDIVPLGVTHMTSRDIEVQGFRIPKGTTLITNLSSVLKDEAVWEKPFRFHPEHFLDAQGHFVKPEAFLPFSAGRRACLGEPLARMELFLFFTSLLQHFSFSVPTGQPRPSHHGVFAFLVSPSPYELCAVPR
[out] < 4.30

====

Listed here: items and their measured solubility.
Experiment: Solubility of compound at pH 5
Assay type: physicochemical
Settings: buffer

Worked set:
* CCOP(=O)([O-])CCCOc1ccc2c(c1)[n+](CC)c(CNC(=O)c1nc(Cl)c(N)nc1N)n2CCCC#N | > 5%
* CC[n+]1c(CNC(=O)c2nc(Cl)cnc2N)n(CC2CCOCC2)c2ccc(OCC(=O)N(Cc3nc(C)ccc3O)C[C@H](C)O)cc21 | > 5%
* CC[n+]1c(CNC(=O)c2nc(Cl)c(N)nc2N)n(CC2CCOCC2)c2ccc(OCC(=O)N(Cc3nc(C)ccc3O)C[C@H](C)O)cc21 | < 2%
* CCn1c(CNC(=O)c2nc(Cl)cnc2N)[n+](CC)c2ccc(C(=O)N(C)CCN(C)C)cc21 | > 2%
* CCn1c(CNC(=O)c2nc(Cl)cnc2N)[n+](CC)c2cc(C(=O)N3CCC(N)CC3)ccc21 | > 2%

[in] I have this molecule here, CCn1c(CNC(=O)c2nc(Cl)cnc2N)[n+](CC)c2cc(C(=O)N3CCC(N(C)C)CC3)ccc21 , and I need its recorded solubility.
[out] > 2%

[in] Fill blank: measured solubility of the molecule CCn1c(CNC(=O)c2nc(Cl)c(N)nc2N)[n+](CC)c2cc(OCCCP(=O)([O-])OC[C@H]3CCCO3)ccc21 is ____.
[out] > 5%

[in] Tell me the measured solubility of CCn1c(CNC(=O)c2nc(Cl)c(N)nc2N)[n+](CCO)c2cc(OCC(=O)N3CCN(C(C)=O)CC3)ccc21 , please.
[out] < 2%

====

Test system: M1 cell
Assay: Inhibition of ENaC-mediated water resorption in mouse M1 cells at 3 uM by radiometric dilution assay relative to control
Type: cell-based
Examples of compounds with documented inhibition follow.
A bare number is not enough; add the unit after it.

Worked examples follow.
* CCn1c(CNC(=O)c2nc(Cl)cnc2N)[n+](CC)c2cc(OCC(=O)OC)ccc21 | 65%
* CCn1c(CNC(=O)c2nc(Cl)cnc2N)[n+](CC)c2cc(OCC(=O)O)ccc21 | 70%

Could you now consider this next compound?
[in] Recorded inhibition for CCn1c(CNC(=O)c2nc(Cl)cnc2N)[n+](CC)c2cc(C(=O)N3CCC(N(C)C)CC3)ccc21 , please?
[out] 79%

====

We begin with a simple list: items and their reported Papp B→A at 2 h, up to 300 µM.
Assay: Permeability across basal to apical side in human Calu-3 cells at 0.1 to 300 uM measured upto 2 hrs by HPLC-MS/MS analysis
Assay type: ADME, cell-based
Conditions: dose 0.1-300 µM, read-out: permeability
Response body: numeric value in ×10⁻⁶ cm/s, unit text excluded.

Some entries whose results are on file:
* CCn1c(CNC(=O)c2nc(Cl)cnc2N)[n+](CC)c2ccc(OCC(=O)NCCOCP(C)(C)=O)cc21 | 0.37
* CCn1c(CNC(=O)c2nc(Cl)cnc2N)[n+](CC)c2cc(C(=O)N3CCC(N)CC3)ccc21 | 0.18

[in] Query (molecule): CC[n+]1c(CNC(=O)c2nc(Cl)c(N)nc2N)n(CC2CCOCC2)c2ccc(OCC(=O)N(Cc3nc(C)ccc3O)C[C@H](C)O)cc21 ; field requested: Papp B→A at 2 h, up to 300 µM
[out] 0.2

====

Hi! I'm sharing some IC50 results obtained with Cytochrome P450 3A4 (Homo sapiens).
Sequence (P08684 whole entry): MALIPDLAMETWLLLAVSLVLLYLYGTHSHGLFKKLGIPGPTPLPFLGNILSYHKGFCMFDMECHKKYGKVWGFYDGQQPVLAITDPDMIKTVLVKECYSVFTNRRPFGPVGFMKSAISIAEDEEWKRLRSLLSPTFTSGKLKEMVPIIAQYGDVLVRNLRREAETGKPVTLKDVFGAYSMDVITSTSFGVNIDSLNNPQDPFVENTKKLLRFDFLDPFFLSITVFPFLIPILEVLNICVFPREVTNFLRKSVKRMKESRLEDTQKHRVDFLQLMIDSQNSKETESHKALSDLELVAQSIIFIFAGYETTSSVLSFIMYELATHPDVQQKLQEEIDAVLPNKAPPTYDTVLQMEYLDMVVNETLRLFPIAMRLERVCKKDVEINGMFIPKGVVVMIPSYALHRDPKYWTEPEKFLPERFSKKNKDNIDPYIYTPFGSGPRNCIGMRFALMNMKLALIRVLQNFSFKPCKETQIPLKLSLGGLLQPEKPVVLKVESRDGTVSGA

[in] Recall the recorded IC50 for CCn1c(CNC(=O)c2nc(Cl)cnc2N)[n+](CC)c2ccc(C(=O)N(C)CCN(C)C)cc21 with Cytochrome P450 3A4 (Homo sapiens) and state it.
[out] > 50 µM

[in] For the record CCn1c(CNC(=O)c2nc(Cl)cnc2N)[n+](CC)c2ccc(OCC(=O)NCCOCP(C)(C)=O)cc21 , what value of IC50 is listed for Cytochrome P450 3A4 (Homo sapiens)?
[out] > 50 µM

====

Assay: Metabolic stability in human liver microsomes assessed as liver blood flow at 1 uM by LC-MS/MS analysis
Assay type: ADME, Microsome
Conditions: read-out: QH
endpoint: hepatic extraction ratio at 1 µM

* CCn1c(CNC(=O)c2nc(Cl)cnc2N)[n+](CC)c2ccc(OCC(=O)NCCOCP(C)(C)=O)cc21 | < 0.23

[in] Which hepatic extraction ratio at 1 µM is listed for CCn1c(CNC(=O)c2nc(Cl)cnc2N)[n+](CC)c2ccc(C(=O)N(C)CCN(C)C)cc21 ?
[out] < 0.23
